Assay: High-throughput drug toxicity screening in the BPDCN cell line Gen2.2 (AID 1224824);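 also: cells exposed to compounds for 48 h before reading; 100% = DMSO and 0% = bortezomib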
Conditions: Gen2.2 BPDCN cells; at 45.8 µM (top of the series) unless noted
Non-standard residues stand in square brackets, D forms with d. Residues, ends and D or L forms follow the SMILES beside them. *: point of attachment. Sta = CC(C)C[C@H](N)[C@@H](O)CC(=O)O; Isovaleryl = CC(C)CC(=O)*
cell viability, % of control (lower = more cytotoxic) values for the molecules below.
API: value field is a number in %; no unit string.

Some molecules with known cell viability, % of control (lower = more cytotoxic) results, for comparison:
molecule	units-of-measure	quantitative-readout
CCCCCCCCCCCCCCCCCCCCCCO	%	148
Cc1ncc([N+](=O)[O-])n1CC(C)O (stereo not drawn)	%	120
Oc1ccc(OCc2ccccc2)cc1	%	226
O=C1CCc2ccc(OCCCCN3CCN(c4cccc(Cl)c4Cl)CC3)cc2N1	%	498
CC(=O)N1CCN(c2ccc(OC[C@H]3CO[C@](Cn4ccnc4)(c4ccc(Cl)cc4Cl)O3)cc2)CC1	%	64.7

CC(C)CC(=O)N[C@H](C(=O)N[C@H](C(=O)N[C@@H](CC(C)C)[C@@H](O)CC(=O)N[C@@H](C)C(=O)N[C@@H](CC(C)C)[C@@H](O)CC(=O)O)C(C)C)C(C)C (Isovaleryl-VV[Sta]A[Sta]-OH) yielded cell viability, % of control (lower = more cytotoxic) of 72.5

----------
Experiment: qHTS for differential inhibitors of proliferation of Plasmodium falciparum line W2 (AID 1883);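 also: parasites grown with compound for 72 h before lysis and staining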
Settings: Plasmodium falciparum W2 proliferation inhibition; series mostly up to 28.7 µM
Results filed as inconclusive are left out. Active and inactive are the calls of the source. Calls follow the shape of the dose curve; as a rule, active = well fitted curve in the direction sought with a large enough effect; inconclusive = small, poorly fitted or top-dose-only effect, or another doubt; inactive = no such curve, though single readings can be large or run the other way.
Answer with one of the outcomes Y = active, N = inactive

> print(dat)
                                   compound  category.label
1  CN(C)CCCC1(c2ccc(F)cc2)OCc2cc(C#N)ccc21 (centres undefined)               Y

Hi team, can someone confirm the assay call for `O=C(CCc1ccc(O)cc1)c1c(O)cc(O)cc1O` ?
Y

Hi team, can someone confirm the assay call for O=C(c1ccccc1)c1ccc2n1CCC2C(=O)O (centres undefined) ?
N

Hi team, can someone confirm the assay call for `O=c1c(O)c(-c2ccc(O)cc2O)oc2cc(O)cc(O)c12` ?
N

----------
Experiment: S16 Schwann cell PMP22 intronic element beta-lactamase assay (AID 624044); also: nearly all actives have a fitted effect of over 15% in size; also: potency is read from the fitted curve at half-maximal effect
Conditions: S16 rat Schwann cells, PMP22 element beta-lactamase FRET, 24 h; series mostly up to 38.3 µM
Results filed as inconclusive are left out. Calls of active or inactive are those of the source. Calls come from the whole dose curve.
readout: Potency

compound	Potency
CC[C@]1(O)C[C@H]2CN(CCc3c([nH]c4ccccc34)[C@@](C(=O)OC)(c3cc4c(cc3OC)N(C=O)[C@H]3[C@@](O)(C(=O)OC)[C@H](OC(C)=O)[C@]5(CC)C=CCN6CC[C@]43[C@@H]65)C2)C1	282 nM (active)
CCC[C@@H]1C[C@@H](C(=O)N[C@@H]([C@H]2O[C@H](SC)[C@H](O)[C@@H](O)[C@H]2O)[C@@H](C)O)N(C)C1	inactive
CCCCCCCCOc1ccccc1C(=O)Nc1ccc(C(=O)OCC[N+](C)(CC)CC)cc1	inactive
COC1=C(OC)C(=O)C(CCCCCCCCCCO)=C(C)C1=O	inactive
O=C(O)c1cn(-c2ccc(F)cc2)c2cc(N3CCNCC3)c(F)cc2c1=O	inactive
c1ccc2[nH]c(-c3cscn3)nc2c1	inactive
CCCCN(CCCC)CCC(O)c1cc2c(Cl)cc(Cl)cc2c2cc(C(F)(F)F)ccc12 (stereo not given)	inactive
CC1(C)CCC(C)(C)c2cc(NC(=O)c3ccc(C(=O)O)cc3)ccc21	inactive

CCCCC(CC)COC(=O)C(C#N)=C(c1ccccc1)c1ccccc1 (stereo not given) yielded Potency of inactive

`Cc1cc2cc3c(C)cc(=O)oc3c(C)c2o1` yielded Potency of inactive

----------
Experiment: Quantitative High-Throughput drug screen in 47 multiple myeloma cell lines against the NCATS MIPE library collection: KMS11_JCRBsus cell viability assay (AID 1919873);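 also: 100% = DMSO-only wells and 0% = media-only wells without cells; nearly all actives have a fitted effect of over 50% in size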
Settings: KMS11 myeloma viability, CellTiter-Glo ATP luminescence, 48 h; series mostly up to 45.8 µM
Records with an inconclusive call do not appear. The source made the active and inactive calls. The call rests on the fitted dose curve; in most records, active means well fitted cell-killing curve with a large enough effect; inconclusive means small, poorly fitted or top-dose-only effect, or effect the other way; inactive means no such curve, though single readings can be large or run the other way.
readout: outcome

> print(dat)
                                   compound  readout    result
1  O=C(OC1C[C@H]2CC[C@@H](C1)[N+]21CCCC1)C(O)(c1ccccc1)c1ccccc1 (stereo partly drawn)  outcome  inactive
2    Cc1cc(O)c2c(c1)C(=O)c1cc(O)cc(O)c1C2=O  outcome  inactive
3  O=C(O)c1cn(-c2ccc(F)cc2)c2cc(N3CCNCC3)c(F)cc2c1=O  outcome  inactive

----------
Experiment: High-throughput drug toxicity screening in the BPDCN cell line Gen2.2 (AID 1224824);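 also: cells exposed to compounds for 48 h before reading; 100% = DMSO and 0% = bortezomib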
Conditions: Gen2.2 BPDCN cells; at 45.8 µM (top of the series) unless noted
Excerpt: Blastic plasmacytoid dendritic cell neoplasm (BPDCN) is a rare, aggressive and largely incurable hematologic malignancy originating from plasmacytoid dendritic cells (pDCs). Although an initial response to chemotherapy is common, BPDCN prognosis is extremely poor and most patients relapse with drug-resistant disease leading to a median overall survival of ~1 year after diagnosis. […]
readout: cell viability, % of control (lower = more cytotoxic) (%)
API: value field is a number in %; no unit string.

Some molecules with known cell viability, % of control (lower = more cytotoxic) results, for comparison:
molecule	units-of-measure	quantitative-readout
CC[C@]1(O)C[C@H]2CN(CCc3c([nH]c4ccccc34)[C@@](C(=O)OC)(c3cc4c(cc3OC)N(C=O)[C@H]3[C@@](O)(C(=O)OC)[C@H](OC(C)=O)[C@]5(CC)C=CCN6CC[C@]43[C@@H]65)C2)C1	%	10.7
Cc1ccc(Nc2nccc(N(C)c3ccc4c(C)n(C)nc4c3)n2)cc1S(N)(=O)=O	%	355

`N[C@@H](Cc1cc(I)c(Oc2cc(I)c(O)c(I)c2)c(I)c1)C(=O)O` yielded cell viability, % of control (lower = more cytotoxic) of 163

`Cc1ccc(C(=O)c2cc(O)c(O)c([N+](=O)[O-])c2)cc1` yielded cell viability, % of control (lower = more cytotoxic) of 52.4

COc1cc2c(cc1OC)C1CC(=O)C(CC(C)C)CN1CC2 (configuration not stated) yielded cell viability, % of control (lower = more cytotoxic) of 141

`CC1(C)CCC(C)(C)c2cc(NC(=O)c3ccc(C(=O)O)cc3)ccc21` yielded cell viability, % of control (lower = more cytotoxic) of 73.5

`Cc1cccc(C#Cc2ccccc2)n1` yielded cell viability, % of control (lower = more cytotoxic) of 40.7

CCC1=C(C)CN(C(=O)NCCc2ccc(S(=O)(=O)NC(=O)NC3CCC(C)CC3)cc2)C1=O (configuration not stated) yielded cell viability, % of control (lower = more cytotoxic) of 114

`CC(=O)NC[C@H]1CN(c2ccc(N3CCOCC3)c(F)c2)C(=O)O1` yielded cell viability, % of control (lower = more cytotoxic) of 81.5

----------
Experiment: Quantitative High-Throughput drug screen in 47 multiple myeloma cell lines against the NCATS MIPE library collection: LP1_DSMZ cell viability assay (AID 1918982); also: nearly all actives have a fitted effect of over 35% in size
Conditions: LP1 myeloma viability, CellTiter-Glo ATP luminescence, 48 h; series mostly up to 45.8 µM
Records with an inconclusive call do not appear. Active and inactive are the calls of the source. The call rests on the fitted dose curve; in most records, active means well fitted cell-killing curve with a large enough effect; inconclusive means small, poorly fitted or top-dose-only effect, or effect the other way; inactive means no such curve, though single readings can be large or run the other way.
Answer with one of the outcomes active, inactive

Illustrative cases are given below, each with its answer.
> print(dat)
                                    molecule  category.label
 1  Clc1ccc2c(N3CCN(CCCN4CCN(c5ccnc6cc(Cl)ccc56)CC4)CC3)ccnc2c1        inactive
 2   NS(=O)(=O)c1cc(C(=O)O)c(NCc2ccco2)cc1Cl        inactive
 3     O=c1cc(N2CCOCC2)oc2c(-c3ccccc3)cccc12          active
 4                    Cc1cccc(C#Cc2ccccc2)n1        inactive
 5                CCN(CC)C(=S)SSC(=S)N(CC)CC          active
 6  O=C(OC1C[C@H]2CC[C@@H](C1)[N+]21CCCC1)C(O)(c1ccccc1)c1ccccc1 (stereo partly specified)        inactive
 7            Cc1cc2cc3c(C)cc(=O)oc3c(C)c2o1        inactive
 8  Clc1ccc(C(Cn2ccnc2)OCc2ccc(Sc3ccccc3)cc2)c(Cl)c1 (stereo unspecified)          active
 9  CN(C)CCCC1(c2ccc(F)cc2)OCc2cc(C#N)ccc21 (stereo unspecified)        inactive
10  CCOC(=O)C1=C[C@@H](OC(CC)CC)[C@H](NC(C)=O)[C@@H](N)C1        inactive

Hi team, can someone confirm the assay call for `Oc1ccc(OCc2ccccc2)cc1` ?
inactive

Hi team, can someone confirm the assay call for C[C@@H](N)C1CCC(C(=O)Nc2ccncc2)CC1 (stereo partly specified) ?
inactive

Hi team, can someone confirm the assay call for `CC(C)C[C@H](NC(=O)[C@H](Cc1ccccc1)NC(=O)c1cnccn1)B(O)O` ?
active

Hi team, can someone confirm the assay call for `CCN(CC)CCOc1ccc(Nc2ncc3cc(-c4c(Cl)cccc4Cl)c(=O)n(C)c3n2)cc1` ?
active

Hi team, can someone confirm the assay call for `CN(C)c1ccc2nc3ccc(=[N+](C)C)cc-3sc2c1` ?
active

Hi team, can someone confirm the assay call for `CN(C)C(=O)COC(=O)Cc1ccc(OC(=O)c2ccc(N=C(N)N)cc2)cc1` ?
inactive

Hi team, can someone confirm the assay call for `C=CCc1cc(OC)c(O)c(C(=O)NCCO)c1` ?
inactive

Hi team, can someone confirm the assay call for `Nc1ccc(S(N)(=O)=O)cc1` ?
inactive

Hi team, can someone confirm the assay call for `S=c1nc[nH]c2nc[nH]c12` ?
active
